# Measurement Target: M2 muscarinic receptor (Homo sapiens)
# Construct: expressed in transfected cells; host or cells: CHO (M2-CHO)
# Sequence (P08172 1-466): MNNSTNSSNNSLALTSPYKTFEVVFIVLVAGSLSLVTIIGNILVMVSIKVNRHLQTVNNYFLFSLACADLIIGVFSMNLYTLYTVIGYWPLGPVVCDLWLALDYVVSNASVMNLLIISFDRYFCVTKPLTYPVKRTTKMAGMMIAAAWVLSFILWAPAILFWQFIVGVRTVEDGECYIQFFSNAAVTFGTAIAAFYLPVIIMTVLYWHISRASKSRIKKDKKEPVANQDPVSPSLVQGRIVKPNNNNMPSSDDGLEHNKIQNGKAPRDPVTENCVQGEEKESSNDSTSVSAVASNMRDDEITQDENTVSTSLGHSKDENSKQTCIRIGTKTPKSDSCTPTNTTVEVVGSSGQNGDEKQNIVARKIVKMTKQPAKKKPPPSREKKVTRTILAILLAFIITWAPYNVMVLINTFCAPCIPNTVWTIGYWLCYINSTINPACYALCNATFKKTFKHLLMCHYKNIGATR
# Protocol: Functional mobilization of intracellular calcium (FLIPR), M2-CHO cells
# Type: cell-based
# Assay Conditions: 100% efficacy = maximum response obtained with the Carbachol control
Value Type: Emax

Solved cases (3 shown):
{"columns": ["Compound", "Value Type", "Observed"],
 "data": [
  ["COc1ccc(-c2ccccc2C#N)cc1C1CCN([C@@H]2C[C@H]3CC[C@H]2C3)CC1", "Emax", "< 25%"],
  ["CCCC1CCC(N2CCC(OC)(c3cc(Cl)ccc3OC)CC2)CC1 (stereo not shown)", "Emax", "< 25%"],
  ["COc1ccc(F)cc1C1CCN(C[C@@H]2C[C@H]3C=C[C@H]2C3)CC1", "Emax", "< 25%"]
]}

Could you tell me which Emax is on file for Cc1ccccc1C1CCN(CC2CC3C=CC2C3)CC1 (stereo not shown) ? 25 to 100%

Look at this compound and give its reported Emax. `COc1ccc(F)cc1C1(F)CCN(CC2CCOCC2)CC1` < 25%

Please report the recorded Emax for `COCCOc1ccccc1C1CCN([C@H]2C[C@H]3CC[C@H]2C3)CC1` . 25 to 100%
